Hello, the source for this data is patent US10865191B2, in case you need it.

Target: UniProt P01375
Sequence (P01375 77-233 limits assumed): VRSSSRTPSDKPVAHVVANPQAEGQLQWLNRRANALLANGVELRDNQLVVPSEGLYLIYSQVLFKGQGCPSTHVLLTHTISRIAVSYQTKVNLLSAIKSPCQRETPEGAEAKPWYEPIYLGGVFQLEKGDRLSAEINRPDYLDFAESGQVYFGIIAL
Assay: TNF induced HEK-Blue assay (NF-kB-driven secreted alkaline phosphatase reporter)
Type: cell-based
Conditions: TNFα 0.5 ng/mL, HEK-Blue-CD40L cells, 18 h; read-out: TNF induced HEK-Blue assay IC50 value
# IC50 annotations

Worked examples follow.
| Compound | IC50 |
| --- | --- |
| COCC(C)(O)c1ncc(-c2cc3c(NC(C)c4ccccc4F)c(Cl)cnc3cc2F)cn1 (stereo not shown) [Example 292] | < 1000 nM |
| COc1ccc(F)c([C@@H](C)Nc2c(Cl)cnc3ccccc23)c1 | 1000 to 10000 nM |
| CC(Cc1ccc(OC(F)(F)F)cc1)Nc1c(Cl)cnc2ccc(-c3cnc(C(C)(C)O)nc3)cc12 (racemic) | 1000 to 10000 nM |
| CC(Nc1c(Cl)cnc2ccc(-c3ccc(C(C)(C)O)cc3)cc12)c1ccccn1 (racemic) | < 1000 nM |
| C[C@@H](Nc1c(Cl)cnc2ccccc12)c1cc(-c2cnc3[nH]ccc3c2)ccc1F | < 1000 nM |
| Cc1nc2cc(F)c(-c3cnc(C(C)(C)O)nc3)cc2c(N[C@H](C)c2cc(CCC(=O)O)ccc2F)c1Cl | 1000 to 10000 nM |

Exercise: Please look up its IC50: C[C@@H](Nc1c(Cl)cnc2ccc(-c3cnc(C(C)(C)O)nc3)cc12)c1cc(-n2cccn2)ccc1F
Solution: < 1000 nM
